Measured IC50 of individual entries
Molecular target: IDH1-R132H recombinant protein (Homo sapiens, UniProt O75874, R132H)
Sequence (O75874 whole entry R132H): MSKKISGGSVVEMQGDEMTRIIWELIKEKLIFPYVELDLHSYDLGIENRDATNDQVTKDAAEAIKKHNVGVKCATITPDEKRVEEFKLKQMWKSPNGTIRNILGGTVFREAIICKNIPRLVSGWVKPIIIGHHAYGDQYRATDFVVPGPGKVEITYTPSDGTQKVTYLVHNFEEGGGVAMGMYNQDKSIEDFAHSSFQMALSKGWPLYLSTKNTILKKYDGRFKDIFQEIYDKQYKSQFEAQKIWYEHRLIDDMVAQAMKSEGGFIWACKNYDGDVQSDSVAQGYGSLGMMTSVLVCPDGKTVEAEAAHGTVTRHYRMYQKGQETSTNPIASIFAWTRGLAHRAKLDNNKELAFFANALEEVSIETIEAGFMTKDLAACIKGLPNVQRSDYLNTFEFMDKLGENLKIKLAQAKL
Test: IDH1-R132H enzymatic assay (NADPH consumption, diaphorase/resazurin readout)
Format: biochemical
Conditions: read-out: Enzyme IDH1 R132H IC50 Range
QUANTITY KIND: IC50

>  <COMPOUND>
C[C@H](Nc1ccc(C#N)cc1S(C)(=O)=O)c1cc2cc(Cl)ccc2[nH]c1=O [Compound I-4]

>  <TARGET>
IDH1-R132H recombinant protein (Homo sapiens, UniProt O75874, R132H)

>  <QUANTITY KIND>
IC50

>  <VALUE>
> 1000 nM

$$$$
>  <COMPOUND>
CCOc1cc(NCc2cc3cc(Cl)ccc3[nH]c2=O)ccc1C#N [Compound I-13]

>  <TARGET>
IDH1-R132H recombinant protein (Homo sapiens, UniProt O75874, R132H)

>  <QUANTITY KIND>
IC50

>  <VALUE>
100 to 1000 nM

$$$$
>  <COMPOUND>
COc1cc(NCc2cc3cc(Cl)c(OCC4CCOCC4)cc3[nH]c2=O)ccc1C#N [Compound I-63]

>  <TARGET>
IDH1-R132H recombinant protein (Homo sapiens, UniProt O75874, R132H)

>  <QUANTITY KIND>
IC50

>  <VALUE>
10 to 100 nM

$$$$
>  <COMPOUND>
COc1cc2[nH]c(=O)c(CNc3ccc(C#N)c(OC)c3)cc2cc1F [Compound I-26]

>  <TARGET>
IDH1-R132H recombinant protein (Homo sapiens, UniProt O75874, R132H)

>  <QUANTITY KIND>
IC50

>  <VALUE>
10 to 100 nM

$$$$
>  <COMPOUND>
COc1cc(NCc2cc3cc(Cl)c(OCCN4CCN(C)CC4)cc3[nH]c2=O)ccc1C#N [Compound I-88]

>  <TARGET>
IDH1-R132H recombinant protein (Homo sapiens, UniProt O75874, R132H)

>  <QUANTITY KIND>
IC50

>  <VALUE>
10 to 100 nM

$$$$
>  <COMPOUND>
COc1cc(NCc2cc3cc(Cl)c(OCc4ccncc4)cc3[nH]c2=O)ccc1C#N [Compound I-74]

>  <TARGET>
IDH1-R132H recombinant protein (Homo sapiens, UniProt O75874, R132H)

>  <QUANTITY KIND>
IC50

>  <VALUE>
100 to 1000 nM

$$$$
>  <COMPOUND>
N#Cc1ccc(NCc2cc3cc(Cl)ccc3[nH]c2=O)cc1OCC(N)=O [Compound I-14]

>  <TARGET>
IDH1-R132H recombinant protein (Homo sapiens, UniProt O75874, R132H)

>  <QUANTITY KIND>
IC50

>  <VALUE>
> 1000 nM

$$$$
>  <COMPOUND>
COc1cc2[nH]c(=O)c(CNc3ccc(C#N)c(OC)c3)cc2cc1Cl [Compound I-21]

>  <TARGET>
IDH1-R132H recombinant protein (Homo sapiens, UniProt O75874, R132H)

>  <QUANTITY KIND>
IC50

>  <VALUE>
100 to 1000 nM

$$$$
>  <COMPOUND>
COc1cc(NCc2cc3ccc(Cl)cc3[nH]c2=O)ccc1C#N [Compound I-29]

>  <TARGET>
IDH1-R132H recombinant protein (Homo sapiens, UniProt O75874, R132H)

>  <QUANTITY KIND>
IC50

>  <VALUE>
100 to 1000 nM

$$$$
>  <COMPOUND>
COc1cc(NCc2cc3cc(Cl)ccc3[nH]c2=O)ccc1C#N [Compound I-7]

>  <TARGET>
IDH1-R132H recombinant protein (Homo sapiens, UniProt O75874, R132H)

>  <QUANTITY KIND>
IC50

>  <VALUE>
100 to 1000 nM

$$$$
>  <COMPOUND>
COc1cc(NCc2cc3cc(Cl)c(OCC(=O)N(C)C)cc3[nH]c2=O)ccc1C#N [Compound I-67]

>  <TARGET>
IDH1-R132H recombinant protein (Homo sapiens, UniProt O75874, R132H)

>  <QUANTITY KIND>
IC50

>  <VALUE>
10 to 100 nM

$$$$
>  <COMPOUND>
COc1cc(C#N)ccc1NCc1cc2cc(Cl)ccc2[nH]c1=O [Compound I-34]

>  <TARGET>
IDH1-R132H recombinant protein (Homo sapiens, UniProt O75874, R132H)

>  <QUANTITY KIND>
IC50

>  <VALUE>
100 to 1000 nM

$$$$
>  <COMPOUND>
COc1cc(NCc2cc3cc(Cl)c(OCC4CCCCN4C)cc3[nH]c2=O)ccc1C#N (stereo not shown) [Compound I-72]

>  <TARGET>
IDH1-R132H recombinant protein (Homo sapiens, UniProt O75874, R132H)

>  <QUANTITY KIND>
IC50

>  <VALUE>
10 to 100 nM

$$$$
>  <COMPOUND>
COc1cc(NCc2cc3cc(Cl)c(OCCCN4CCCCC4)cc3[nH]c2=O)ccc1C#N [Compound I-84]

>  <TARGET>
IDH1-R132H recombinant protein (Homo sapiens, UniProt O75874, R132H)

>  <QUANTITY KIND>
IC50

>  <VALUE>
100 to 1000 nM

$$$$
>  <COMPOUND>
COc1cc(NCc2cc3cc(C)ccc3[nH]c2=O)ccc1-n1cnc(C)c1 [Compound I-18]

>  <TARGET>
IDH1-R132H recombinant protein (Homo sapiens, UniProt O75874, R132H)

>  <QUANTITY KIND>
IC50

>  <VALUE>
> 1000 nM

$$$$
>  <COMPOUND>
NC(=O)COc1ccc(NCc2cc3cc(Cl)ccc3[nH]c2=O)cc1 [Compound I-43]

>  <TARGET>
IDH1-R132H recombinant protein (Homo sapiens, UniProt O75874, R132H)

>  <QUANTITY KIND>
IC50

>  <VALUE>
> 1000 nM

$$$$
>  <COMPOUND>
COc1cc(NCc2cc3cc(Cl)c(OCCCN(C)C)cc3[nH]c2=O)ccc1C#N [Compound I-82]

>  <TARGET>
IDH1-R132H recombinant protein (Homo sapiens, UniProt O75874, R132H)

>  <QUANTITY KIND>
IC50

>  <VALUE>
100 to 1000 nM

$$$$
>  <COMPOUND>
COc1ccc2cc(CNc3ccc(C#N)c(OC)c3)c(=O)[nH]c2c1 [Compound I-56]

>  <TARGET>
IDH1-R132H recombinant protein (Homo sapiens, UniProt O75874, R132H)

>  <QUANTITY KIND>
IC50

>  <VALUE>
100 to 1000 nM

$$$$
>  <COMPOUND>
N#Cc1ccc(NCc2cc3cc(Cl)ccc3[nH]c2=O)cc1O [Compound I-8]

>  <TARGET>
IDH1-R132H recombinant protein (Homo sapiens, UniProt O75874, R132H)

>  <QUANTITY KIND>
IC50

>  <VALUE>
100 to 1000 nM

$$$$
